experiment: Clearance in Sprague-Dawley rat at 1 mg/kg, iv; format: ADME, organism-based; design: dose 1 mg/kg, route intravenous; conditions: in vivo
endpoint: clearance (mL/min/kg)
Give your result in mL/min/kg as a bare value.

Task item: Annotate the molecule `CC(C)[C@]1(C(=O)NCc2cc(F)cc(C(F)(F)F)c2)CC[C@@H](N2CC[C@]3(C=Cc4ccccc43)[C@@H](C)C2)C1` with its measured clearance.
Reply: 19.4

----------
experiment: Tmax in Sprague-Dawley rat at 3 mg/kg, po; format: ADME, organism-based; design: dose 3 mg/kg, route oral; details: in vivo
endpoint: Tmax (min)
Write the number in min without appending the unit.

Task item: Please indicate Tmax recorded for `CC(C)[C@]1(C(=O)NCc2cc(F)cc(C(F)(F)F)c2)CC[C@@H](N2CC[C@]3(C=Cc4ccccc43)[C@@H](C)C2)C1`
Reply: 49.8
